- SYSTEM UNDER TEST: HLA-B*57:01
- TEST SUMMARY: IEDB peptide-MHC binding, purified MHC/direct/fluorescence; filed as Kd, often an IC50 or EC50 that approximates it; bounds were set here for any values at or beyond the usual limits of such assays
- SETUP CONDITIONS: source organism: Ebola virus - Gabon (1994-1997)
EXPERIMENTAL READOUT: Kd

QLSLKMLSL = ≥ 20 µM

* * *

- SYSTEM UNDER TEST: HLA-A*26:01
- TEST SUMMARY: IEDB peptide-MHC binding, purified MHC/competitive/radioactivity; filed as Kd, often an IC50 or EC50 that approximates it; bounds were set here for any values at or beyond the usual limits of such assays
- SETUP CONDITIONS: source organism: Mammarenavirus mopeiaense
pKd: −log10 of the molar value.
EXPERIMENTAL READOUT: pKd

IKIPTHRHI = ≤ 4.11

Data origin: the Immune Epitope Database (IEDB)
